# System: castor-oil-induced diarrhea
# Experimental protocol: Castor oil-induced diarrhea in rats
# Condition: Rattus norvegicus, po, 4 h, read-out: Castor Oil ID50 (mg/kg)-4 hr.
Where a name gives a salt, the structure may show the parent alone.
Readout: ED50
Kindly format the answer as number then unit.

{"columns": ["Compound", "Readout", "Result"],
 "data": [
  ["Cc1cc(N)ccc1NC1=NCCC1.Cl.Cl [Example 9]", "ED50", "0.97 mg/kg"],
  ["CC(=O)Nc1ccc(NC2=NCCC2)c(C)c1 [Example 16, hydrochloride]", "ED50", "3.63 mg/kg"],
  ["CCOC(=O)Nc1ccc(NC2=NCCC2)c(C)c1.Cl [Example 23]", "ED50", "1.81 mg/kg"]
]}

Q) Please tell me the measured ED50 for Cc1cc(N)cc(C)c1NC1=NCCC1.Cl.Cl [Example 11] ; system: castor-oil-induced diarrhea.
A) 13.6 mg/kg

Q) Please tell me the measured ED50 for CCC(=O)Nc1ccc(NC2=NCCC2)c(C)c1.Cl [Example 18] ; system: castor-oil-induced diarrhea.
A) 0.97 mg/kg

Every entry's value here was drawn from patent US4533739A.
